# TARGET SYSTEM: Gal4-RORγ-LBD (Homo sapiens)
# Construct: expressed in transfected cells; host or cells: HEK-293 cells (pcDNA3.1neo plasmid)
# Sequence (P51449 269-508 limits assumed): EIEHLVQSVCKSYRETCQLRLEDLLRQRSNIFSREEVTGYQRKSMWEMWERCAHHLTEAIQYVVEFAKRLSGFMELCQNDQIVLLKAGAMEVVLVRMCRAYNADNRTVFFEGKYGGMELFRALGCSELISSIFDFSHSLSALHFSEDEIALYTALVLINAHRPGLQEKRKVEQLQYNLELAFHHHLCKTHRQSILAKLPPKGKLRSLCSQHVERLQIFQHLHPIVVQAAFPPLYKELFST
# PROCEDURE DETAILS: Gal4-RORγ Luciferase Reporter Assay in HEK-293T Cells
# Format: cell-based
# TEST CONTEXT: HEK-293 cells, luciferase reporter, with 2 μM ursolic acid
VALUE KIND: EC50

> print(dat)
                                    compound          result
 1  COc1cc(S(=O)(=O)N2C[C@H](CCNC(=O)C(C)(C)O)Oc3ccc(-c4cc(F)ccc4F)cc32)ccc1F [Compound 30M]        < 500 nM
 2  CC(C)(O)C(=O)NCC[C@H]1CN(S(=O)(=O)c2cccc(C(F)(F)F)c2)c2cc(-c3cc(F)ccc3F)ccc2O1 [Compound 29]        < 500 nM
 3  COc1cc(S(=O)(=O)N2C[C@H](CCc3n[nH]c(=O)o3)Oc3ccc(-c4cc(F)ccc4F)cc32)ccc1F [Compound 28J]        < 500 nM
 4  O=C(O)CC[C@H]1CN(S(=O)(=O)c2cccc(C(F)(F)F)c2)c2cc(-c3nccc(C(F)(F)F)n3)ccc2O1 [Compound 4B]        < 500 nM
 5  CC(C)(C[C@H]1CN(S(=O)(=O)c2cccc(C(F)(F)F)c2)c2cc(-c3cccc(C(F)(F)F)c3)ccc2O1)C(=O)O [Compound 32O]        < 500 nM
 6  O=C(CC[C@H]1CN(S(=O)(=O)c2cccc(C(F)(F)F)c2)c2cc(-c3cccc(F)c3F)ccc2O1)N1CCS(=O)(=O)CC1 [Compound 23N]        < 500 nM
 7  Cc1cccc(-c2ccc3c(c2)N(S(=O)(=O)c2cccc(C(F)(F)F)c2)C[C@H](CCC(=O)O)O3)c1F [Compound 2AY]  500 to 5000 nM
 8  CCOc1nn(CC)cc1S(=O)(=O)N1C[C@H](CCC(=O)O)Oc2ccc(-c3cccc(Cl)c3)cc21 [Compound 6A]  500 to 5000 nM
 9  CS(=O)(=O)NC(=O)CC[C@H]1CN(S(=O)(=O)c2cccc(C(F)(F)F)c2)c2cc(-c3cc(F)ccc3F)ccc2O1 [Compound 42]        < 500 nM
10  CC(C)(C)OC(=O)NCC[C@H]1CN(S(=O)(=O)c2cccc(C(F)(F)F)c2)c2cc(-c3cc(F)ccc3F)ccc2O1 [Compound 12]        < 500 nM
11  Cc1ccc(N(C)C)nc1-c1ccc2c(c1)N(S(=O)(=O)c1cccc(C(F)(F)F)c1)C[C@H](CCC(=O)O)O2 [Compound 4AO]      > 10000 nM
12  CC(C)c1cccc(S(=O)(=O)N2C[C@H](CCc3n[nH]c(=O)o3)Oc3ccc(-c4cc(F)ccc4F)cc32)c1 [Compound 28D]        < 500 nM
13  O=C(O)C1CCN(C(=O)NC[C@H]2CN(S(=O)(=O)c3cccc(C(F)(F)F)c3)c3cc(-c4cc(F)ccc4F)ccc3O2)CC1 [Compound 23Q]  500 to 5000 nM
14  CN(C)c1cccc(-c2ccc3c(c2)N(S(=O)(=O)c2cccc(C(F)(F)F)c2)C[C@H](CCC(=O)O)O3)n1 [Compound 4X]        < 500 nM
15  Cn1cncc1-c1ccc2c(c1)N(S(=O)(=O)c1cccc(C(F)(F)F)c1)C[C@H](CCC(=O)O)O2 [Compound 4K]      > 10000 nM
16  O=C(O)CC[C@H]1CN(S(=O)(=O)c2cccc(C(F)(F)F)c2)c2cc(-c3cccc(F)c3F)cc(F)c2O1 [Compound 22E]        < 500 nM
17  O=C1CC(C(=O)NC[C@H]2CN(S(=O)(=O)c3cccc(C(F)(F)F)c3)c3cc(-c4cc(F)ccc4F)ccc3O2)C1 [Compound 30AA]        < 500 nM
18  O=S(=O)(c1cccc(C(F)(F)F)c1)N1C[C@H](CCCO)Oc2ccc(-c3cccc(Cl)c3)cc21 [Compound 34D]        < 500 nM
19  O=C(O)CNC(=O)NCC[C@H]1CN(S(=O)(=O)c2cccc(C(F)(F)F)c2)c2cc(-c3cc(F)ccc3F)ccc2O1 [Compound 23X]  500 to 5000 nM
20  O=C(O)CC[C@H]1CN(S(=O)(=O)c2cccc(C(F)(F)F)c2)c2cc(-c3cccc(C(F)(F)F)n3)ccc2O1 [Compound 4A]        < 500 nM
21  CC(C)n1cc(-c2ccc3c(c2)N(S(=O)(=O)c2cccc(C(F)(F)F)c2)C[C@H](CCC(=O)O)O3)cn1 [Compound 4AC]        < 500 nM
22  O=C(O)C1CCN(C(=O)CC[C@H]2CN(S(=O)(=O)c3cccc(C(F)(F)F)c3)c3cc(-c4cccc(Cl)c4)cc(F)c3O2)CC1 [Compound 9]        < 500 nM
23  O=C(CO)NC[C@H]1CN(S(=O)(=O)c2cccc(C(F)(F)F)c2)c2cc(-c3cc(F)ccc3F)ccc2O1 [Compound 30BA]        < 500 nM
24  O=C(O)C1CCN(C(=O)CC[C@H]2CN(S(=O)(=O)c3cccc(C(F)(F)F)c3)c3cc(-c4cccc(Cl)c4)ccc3O2)CC1 [Compound 23C]        < 500 nM
25  CNS(=O)(=O)NC[C@H]1CN(S(=O)(=O)c2cccc(C(F)(F)F)c2)c2cc(-c3cc(F)ccc3F)ccc2O1 [Compound 44]        < 500 nM
26  CC(C)(CO)C(=O)NC[C@H]1CN(S(=O)(=O)c2cccc(C(F)(F)F)c2)c2cc(-c3cccc(C(F)(F)F)n3)ccc2O1 [Compound 30BI]  500 to 5000 nM

====

# TARGET SYSTEM: RORγ-LBD (Homo sapiens, UniProt P51449)
# Sequence (P51449 269-508 limits assumed): as above
# PROCEDURE DETAILS: RORγ-Ligand Binding Domain (LBD) TR-FRET Assay
# Method: Assay procedures and results are described below. HIS-tagged RORγ-LBD protein was expressed in SF9 cells using a baculovirus expression system. The lysate was diluted in assay buffer (50 mM Tris pH 7.0, 50 mM KCl, 1 mM EDTA, 0.1 mM DTT, 0.01% BSA) to obtain RORγ-LBD final concentration of ˜3 nM in a 384-well assay plate (need to titrate for each batch of protein). […]
Each record here notes measured EC50.
VALUE KIND: EC50

> print(dat)
                                    molecule                            target.system          result
 1  COc1cc(-c2ccc3c(c2)N(S(=O)(=O)c2cccc(C(F)(F)F)c2)C[C@H](CCC(=O)O)O3)nc(N(C)C)c1 [Compound 4AP]  RORγ-LBD (Homo sapiens, UniProt P51449)        < 500 nM
 2  O=C(O)[C@H]1C[C@H]([C@H]2CN(S(=O)(=O)c3cccc(C(F)(F)F)c3)c3cc(-c4cc(F)cc(OC(F)F)c4)ccc3O2)C1 [Compound 60K]  RORγ-LBD (Homo sapiens, UniProt P51449)        < 500 nM
 3  CNc1cccc(-c2ccc3c(c2)N(S(=O)(=O)c2cccc(C(F)(F)F)c2)C[C@H](CCC(=O)O)O3)n1 [Compound 4AM]  RORγ-LBD (Homo sapiens, UniProt P51449)        < 500 nM
 4  Cc1coc(-c2ccc3c(c2)N(S(=O)(=O)c2cccc(C(F)(F)F)c2)C[C@H](CCC(=O)O)O3)n1 [Compound 25]  RORγ-LBD (Homo sapiens, UniProt P51449)  500 to 5000 nM
 5  O=C(O)C1(C[C@H]2CN(S(=O)(=O)c3cccc(C(F)(F)F)c3)c3cc(-c4cc(F)cc(OC(F)F)c4)ccc3O2)CCC1 [Compound 32BH]  RORγ-LBD (Homo sapiens, UniProt P51449)        < 500 nM
 6  CC(C)(C(=O)NC[C@H]1CN(S(=O)(=O)c2cccc(C(F)(F)F)c2)c2cc(-c3cc(F)cc(OC(F)F)c3)ccc2O1)C(F)(F)F [Compound 30CY]  RORγ-LBD (Homo sapiens, UniProt P51449)        < 500 nM
 7  O=C(O)CC[C@H]1CN(S(=O)(=O)c2cccc(C(F)(F)F)c2)c2cc(-c3ccnc(Cl)n3)ccc2O1 [Compound 4AX]  RORγ-LBD (Homo sapiens, UniProt P51449)  500 to 5000 nM
 8  O=C(O)[C@@H]1C[C@H]1[C@H]1CN(S(=O)(=O)c2cccc(C(F)(F)F)c2)c2cc(-c3cc(F)ccc3F)ccc2O1 [Compound 53]  RORγ-LBD (Homo sapiens, UniProt P51449)        < 500 nM
 9  COc1cccc(-c2cc(F)c3c(c2)N(S(=O)(=O)c2cccc(C(F)(F)F)c2)C[C@H](CCC(=O)O)O3)c1 [Compound 22D]  RORγ-LBD (Homo sapiens, UniProt P51449)        < 500 nM
10  Cc1cc(Cl)cc(-c2ccc3c(c2)N(S(=O)(=O)c2cccc(C(F)(F)F)c2)C[C@H](CC2(C(=O)O)CCOCC2)O3)c1 [Compound 78B]  RORγ-LBD (Homo sapiens, UniProt P51449)        < 500 nM
11  C[C@@H](C[C@H]1CN(S(=O)(=O)c2cccc(C(F)(F)F)c2)c2cc(-c3cccc(C(F)(F)F)n3)ccc2O1)C(=O)O [Compound 46T]  RORγ-LBD (Homo sapiens, UniProt P51449)        < 500 nM
12  CC(C)Oc1cccc(-c2ccc3c(c2)N(S(=O)(=O)c2cccc(C(F)(F)F)c2)C[C@H](CCC(=O)O)O3)c1 [Compound 2AV]  RORγ-LBD (Homo sapiens, UniProt P51449)        < 500 nM
13  COc1cccc(-c2ccc3c(c2)N(S(=O)(=O)c2cccc(C(F)(F)F)c2)C[C@H](CCNC(=O)C(C)(C)O)O3)c1 [Compound 30E]  RORγ-LBD (Homo sapiens, UniProt P51449)        < 500 nM
